# Test system: MV4-11
# ASSAY_METHOD_TEXT: Anti-proliferative activity against human MV4-11 cells assessed as cell viability measured after 72 hrs by Cell-Titer assay
# Assay type: functional, cell-based
# STATED_CONDITIONS: MV4-11, 72 h
OBSERVABLE: IC50 (µM)

> print(dat)
                           substance.smiles   u  experimental.result
1  O=C(NO)c1ccc(CN(Cc2cccnc2)S(=O)(=O)c2cc(F)c(F)c(F)c2F)cc1  µM                  0.6
2  O=C(CCCCCCNC(=O)c1cnc(N(c2ccccc2)c2ccccc2Cl)nc1)NO  µM                  1.2

---

# System: U-87 MG
# ASSAY_METHOD_TEXT: Anti-proliferative activity against human U87G cells assessed as cell viability measured after 72 hrs by Cell-Titer assay
# Format: functional, cell-based, U-87MG ATCC
pIC50: −log10 of the molar value.
OBSERVABLE: pIC50

> print(dat)
                                   molecule  experimental.result
1  O=C(NO)c1ccc(CN(Cc2cccnc2)S(=O)(=O)c2cc(F)c(F)c(F)c2F)cc1                 5.70
2  O=C(CCCCCCNC(=O)c1cnc(N(c2ccccc2)c2ccccc2Cl)nc1)NO [CITARINOSTAT]                 5.04

---

# TESTED_ON: Protein deacetylase HDAC6 (Homo sapiens)
# ASSAY_METHOD_TEXT: Inhibition of full length human HDAC6 preincubated for 3 hrs
pIC50: −log10 of the molar value.
OBSERVABLE: pIC50

> print(dat)
                           substance.smiles  experimental.result
1  O=C(NO)c1ccc(CN(Cc2cccnc2)S(=O)(=O)c2cc(F)c(F)c(F)c2F)cc1                 8.70

---

pIC50 values by entry
# ASSAY_METHOD_TEXT: Anti-proliferative activity against human MRC9 cells assessed as cell viability measured after 72 hrs by Cell-Titer assay
# Format: functional, cell-based
# STATED_CONDITIONS: MRC9, 72 h
pIC50: −log10 of the molar value.
OBSERVABLE: pIC50

> print(dat)
                           substance.smiles  observable  inequality.operator  experimental.result
1  O=C(NO)c1ccc(CN(Cc2cccnc2)S(=O)(=O)c2cc(F)c(F)c(F)c2F)cc1       pIC50                    <                 4.30
2  O=C(CCCCCCNC(=O)c1cnc(N(c2ccccc2)c2ccccc2Cl)nc1)NO       pIC50                    =                 4.52

---

# TESTED_ON: Histone deacetylase 9 (Homo sapiens)
# Sequence (Q9UKV0 whole entry): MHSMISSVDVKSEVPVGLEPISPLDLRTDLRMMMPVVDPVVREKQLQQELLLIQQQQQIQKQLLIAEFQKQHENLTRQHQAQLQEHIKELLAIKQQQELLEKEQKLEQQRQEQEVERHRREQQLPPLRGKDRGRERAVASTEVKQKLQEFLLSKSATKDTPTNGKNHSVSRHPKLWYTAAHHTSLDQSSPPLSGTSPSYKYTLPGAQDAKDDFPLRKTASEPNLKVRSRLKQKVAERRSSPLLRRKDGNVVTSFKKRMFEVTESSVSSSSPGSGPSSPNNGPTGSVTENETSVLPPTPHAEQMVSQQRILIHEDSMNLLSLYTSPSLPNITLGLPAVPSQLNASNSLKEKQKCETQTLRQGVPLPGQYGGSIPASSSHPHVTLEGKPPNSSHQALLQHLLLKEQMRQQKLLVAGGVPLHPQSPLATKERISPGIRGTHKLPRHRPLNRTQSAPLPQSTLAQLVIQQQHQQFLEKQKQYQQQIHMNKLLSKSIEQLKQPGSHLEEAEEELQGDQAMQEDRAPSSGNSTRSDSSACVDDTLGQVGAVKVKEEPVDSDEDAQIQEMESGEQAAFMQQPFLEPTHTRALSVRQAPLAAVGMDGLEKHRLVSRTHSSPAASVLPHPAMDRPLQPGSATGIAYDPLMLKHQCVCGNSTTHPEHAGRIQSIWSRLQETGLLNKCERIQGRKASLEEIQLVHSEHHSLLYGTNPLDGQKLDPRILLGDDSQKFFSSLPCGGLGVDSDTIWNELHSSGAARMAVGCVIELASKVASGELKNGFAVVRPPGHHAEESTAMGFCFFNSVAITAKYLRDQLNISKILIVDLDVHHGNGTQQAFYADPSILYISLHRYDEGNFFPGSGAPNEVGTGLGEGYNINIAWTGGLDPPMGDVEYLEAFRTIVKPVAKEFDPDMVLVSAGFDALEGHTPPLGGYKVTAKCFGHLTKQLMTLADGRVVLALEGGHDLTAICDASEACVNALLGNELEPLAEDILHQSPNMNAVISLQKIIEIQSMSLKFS
pIC50: −log10 of the molar value.
OBSERVABLE: pIC50

> print(dat)
                           substance.smiles  experimental.result
1  O=C(NO)c1ccc(CN(Cc2cccnc2)S(=O)(=O)c2cc(F)c(F)c(F)c2F)cc1                 5.56

---

# ASSAY_METHOD_TEXT: Stability in mouse plasma assessed as compound remaining measured after 30 mins
# Type: ADME, cell-free
# STATED_CONDITIONS: read-out: Stability
OBSERVABLE: remaining at 0.5 h (%)

> print(dat)
                           substance.smiles  experimental.result
1  O=C(NO)c1ccc(CN(Cc2cccnc2)S(=O)(=O)c2cc(F)c(F)c(F)c2F)cc1                 79.8

---

# TESTED_ON: Protein deacetylase HDAC6 (Homo sapiens, UniProt Q9UBN7)
# Sequence (Q9UBN7 whole entry): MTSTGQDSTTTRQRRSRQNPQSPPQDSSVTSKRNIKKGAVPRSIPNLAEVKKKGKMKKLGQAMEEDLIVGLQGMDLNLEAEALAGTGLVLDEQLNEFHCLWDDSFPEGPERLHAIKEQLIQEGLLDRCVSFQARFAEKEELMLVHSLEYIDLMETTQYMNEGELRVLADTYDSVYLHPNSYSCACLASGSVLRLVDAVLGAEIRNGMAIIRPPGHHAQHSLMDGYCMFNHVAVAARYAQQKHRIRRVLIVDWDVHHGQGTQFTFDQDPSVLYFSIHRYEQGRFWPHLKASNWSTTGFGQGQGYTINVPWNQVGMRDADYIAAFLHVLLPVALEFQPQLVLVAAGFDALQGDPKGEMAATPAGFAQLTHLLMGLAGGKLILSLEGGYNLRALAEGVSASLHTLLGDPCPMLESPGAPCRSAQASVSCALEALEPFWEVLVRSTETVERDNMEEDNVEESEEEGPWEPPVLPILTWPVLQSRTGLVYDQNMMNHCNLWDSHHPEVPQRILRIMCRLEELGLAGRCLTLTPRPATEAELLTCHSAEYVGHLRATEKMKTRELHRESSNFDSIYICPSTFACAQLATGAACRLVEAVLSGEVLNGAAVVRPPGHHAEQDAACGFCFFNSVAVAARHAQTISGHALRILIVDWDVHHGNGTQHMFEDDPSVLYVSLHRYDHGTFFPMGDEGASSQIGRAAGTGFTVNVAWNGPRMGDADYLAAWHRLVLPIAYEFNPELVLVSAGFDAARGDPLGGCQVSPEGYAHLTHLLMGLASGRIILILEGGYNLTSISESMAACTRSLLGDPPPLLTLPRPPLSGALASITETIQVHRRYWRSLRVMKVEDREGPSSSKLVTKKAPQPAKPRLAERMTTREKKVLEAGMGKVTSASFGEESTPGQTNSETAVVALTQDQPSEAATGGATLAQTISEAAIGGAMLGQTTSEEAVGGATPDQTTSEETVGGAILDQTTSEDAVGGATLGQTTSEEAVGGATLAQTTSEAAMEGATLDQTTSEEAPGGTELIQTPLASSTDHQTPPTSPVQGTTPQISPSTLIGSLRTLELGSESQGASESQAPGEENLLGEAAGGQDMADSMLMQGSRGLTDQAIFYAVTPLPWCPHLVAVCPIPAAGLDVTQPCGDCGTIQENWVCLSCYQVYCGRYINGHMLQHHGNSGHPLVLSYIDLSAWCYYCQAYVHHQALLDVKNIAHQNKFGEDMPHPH
# ASSAY_METHOD_TEXT: Inhibition of full length human HDAC6 using FAM-labeled acetylated peptide as substrate by electrophoretic mobility shift assay
Threshold 10 nM. IC50 below it: Criterion met. IC50 at it or above: Criterion not met.

> print(dat)
                            substance.smiles         class.name
 1  O=C(NO)c1ccc(CN(Cc2ccncc2)S(=O)(=O)c2c(F)c(F)c(F)c(F)c2F)cc1  Criterion not met
 2  O=C(NO)c1ccc(CN(Cc2ccc(F)cc2)S(=O)(=O)c2c(F)c(F)c(F)c(F)c2F)cc1  Criterion not met
 3  O=C(NO)c1ccc(CN(Cc2ccccc2)S(=O)(=O)c2cc(F)c(F)c(F)c2F)cc1      Criterion met
 4  O=C(NO)c1ccc(CN(Cc2ccc(F)cc2)S(=O)(=O)c2cc(F)c(F)c(F)c2F)cc1  Criterion not met
 5  O=C(NO)c1ccc(CN(Cc2ccccn2)S(=O)(=O)c2cc(F)c(F)c(F)c2F)cc1      Criterion met
 6  O=C(NO)c1ccc(CN(Cc2cccc(F)c2)S(=O)(=O)c2cc(F)c(F)c(F)c2F)cc1  Criterion not met
 7  CN(C)c1ccc(CN(Cc2ccc(C(=O)NO)cc2)S(=O)(=O)c2c(F)c(F)c(F)c(F)c2F)cc1  Criterion not met
 8  O=C(NO)c1ccc(CN(Cc2ccccc2)S(=O)(=O)c2c(F)c(F)c(F)c(F)c2F)cc1      Criterion met
 9  O=C(CCCCCCC(=O)N/N=C/c1ccc(N(c2ccccc2)c2ccccc2)cc1)NO  Criterion not met
10  Cc1ccc(CN(Cc2ccc(C(=O)NO)cc2)S(=O)(=O)c2c(F)c(F)c(F)c(F)c2F)cc1      Criterion met
11  O=C(NO)c1ccc(CN(Cc2ccncc2)S(=O)(=O)c2cc(F)c(F)c(F)c2F)cc1  Criterion not met
12  O=C(NO)c1ccc(CN(Cc2ccc(C(F)(F)F)cc2)S(=O)(=O)c2c(F)c(F)c(F)c(F)c2F)cc1  Criterion not met
13  CC(C)(C)c1ccc(CN(Cc2ccc(C(=O)NO)cc2)S(=O)(=O)c2c(F)c(F)c(F)c(F)c2F)cc1  Criterion not met

---

Each record here notes measured IC50.
# System: HeLa
# ASSAY_METHOD_TEXT: Anti-proliferative activity against human HeLa cells assessed as cell viability measured after 72 hrs by Cell-Titer assay
# Assay type: functional, cell-based
OBSERVABLE: IC50

> print(dat)
                           substance.smiles  experimental.result
1  O=C(CCCCCCNC(=O)c1cnc(N(c2ccccc2)c2ccccc2Cl)nc1)NO                 7 µM
2  O=C(NO)c1ccc(CN(Cc2cccnc2)S(=O)(=O)c2cc(F)c(F)c(F)c2F)cc1               3.5 µM

// data source = ChEMBL document CHEMBL5042469
